This collection of values is drawn from patent US20250382376A1.

Target: T1, extracellular domain of human CD73 protein, C-terminus polyhistidine-tagged (human, UniProt P21589 27-547)
T1 construct: also the immunogen; also called CD73-ECD; human CD73-ECD
T1 sequence: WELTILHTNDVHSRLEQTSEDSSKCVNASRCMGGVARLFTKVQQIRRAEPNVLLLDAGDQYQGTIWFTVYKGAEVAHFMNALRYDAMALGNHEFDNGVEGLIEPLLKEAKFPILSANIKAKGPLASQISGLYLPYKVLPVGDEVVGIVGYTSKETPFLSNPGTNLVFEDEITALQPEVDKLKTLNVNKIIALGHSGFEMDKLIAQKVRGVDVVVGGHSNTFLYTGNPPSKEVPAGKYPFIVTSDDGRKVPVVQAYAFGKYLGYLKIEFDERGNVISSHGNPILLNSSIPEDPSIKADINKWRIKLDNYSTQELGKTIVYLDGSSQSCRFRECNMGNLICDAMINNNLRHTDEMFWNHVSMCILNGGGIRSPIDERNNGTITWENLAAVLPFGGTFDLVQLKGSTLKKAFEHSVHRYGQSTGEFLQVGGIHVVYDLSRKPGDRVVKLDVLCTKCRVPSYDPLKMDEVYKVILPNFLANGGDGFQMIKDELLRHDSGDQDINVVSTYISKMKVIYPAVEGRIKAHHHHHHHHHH
Assay: ELISA on CD73-ECD, 20 µL supernatant of antibody expression, first of two readings; PBS 0.19, 0.18
Method: The CD73 protein extracellular region (CD73-ECD) was diluted to 1 μg/mL using the coating solution, and an ELISA plate was coated at 100 μL/well at 4° C. overnight. Excess antigens were washed away, and the plate was blocked with 1% BSA at room temperature for 2 hours. […] 1M HCL was added at 50 µL/well to terminate the color development reaction, and then the absorbance was measured at 450 nm and the data was analyzed. […]
Entries and their ELISA reading (not named on the sheet)
Measured Quantity: ELISA reading (not named on the sheet)

1. 5-E11 derived antibody 5-E11QS (VHH, not shown: a dimerising Fc or GST) VHH: ALQLVESGGGLVQPGGSLRLSCEVSGFTLDYYNIGWFRQAPGKEREGVSCSSQSGGSTYYADSVKGRFTISRDNAKNTVYLQMNSLKPEDTGVYYCAAYRGWHPSLDARVYDYWGQGTEVTVSS = 4.17
2. 5-E11 derived antibody 5-E11GS (VHH, not shown: a dimerising Fc or GST) VHH: ALQLVESGGGLVQPGGSLRLSCEVSGFTLDYYNIGWFRQAPGKEREGVSCSSGSGGSTYYADSVKGRFTISRDNAKNTVYLQMNSLKPEDTGVYYCAAYRGWHPSLDARVYDYWGQGTEVTVSS = 4.15
3. 5-E11 derived antibody 5-E11AS (VHH, not shown: a dimerising Fc or GST) VHH: ALQLVESGGGLVQPGGSLRLSCEVSGFTLDYYNIGWFRQAPGKEREGVSCSSASGGSTYYADSVKGRFTISRDNAKNTVYLQMNSLKPEDTGVYYCAAYRGWHPSLDARVYDYWGQGTEVTVSS = 4.24
4. chimeric nanobody 5-E11 (Fc fusion, Human-alpaca chimeric antibody (VHH on hIgG1 Fc); Only the VHH is tied to the tested molecule; also called original antibody 5-E11) VHH: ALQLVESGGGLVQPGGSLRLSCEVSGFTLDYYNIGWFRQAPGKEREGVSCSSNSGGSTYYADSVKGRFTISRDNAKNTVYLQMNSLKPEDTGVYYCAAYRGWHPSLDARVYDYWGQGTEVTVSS = 4.19
